pIC50: −log10 of the molar value.
# pIC50 measurements, system: Dual specificity testis-specific protein kinase 2 (Homo sapiens, UniProt Q96S53)
# Sequence (Q96S53 whole entry): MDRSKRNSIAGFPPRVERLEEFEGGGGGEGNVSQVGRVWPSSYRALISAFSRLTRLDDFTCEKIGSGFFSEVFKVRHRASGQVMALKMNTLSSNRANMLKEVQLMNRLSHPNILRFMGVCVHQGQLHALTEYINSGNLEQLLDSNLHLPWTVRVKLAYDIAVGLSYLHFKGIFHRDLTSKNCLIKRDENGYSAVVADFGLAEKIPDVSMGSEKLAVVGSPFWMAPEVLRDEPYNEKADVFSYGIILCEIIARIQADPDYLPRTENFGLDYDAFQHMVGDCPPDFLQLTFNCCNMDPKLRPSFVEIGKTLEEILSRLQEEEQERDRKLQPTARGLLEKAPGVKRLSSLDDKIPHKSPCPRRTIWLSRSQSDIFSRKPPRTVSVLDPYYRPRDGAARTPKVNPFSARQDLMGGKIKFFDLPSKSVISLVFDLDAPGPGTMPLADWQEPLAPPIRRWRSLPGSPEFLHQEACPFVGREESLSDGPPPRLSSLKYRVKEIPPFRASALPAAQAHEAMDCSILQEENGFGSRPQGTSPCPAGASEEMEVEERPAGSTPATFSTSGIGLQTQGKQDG

- Structure: "COc1cc(Cl)c(-c2cc(-c3cnc(NC(C)=O)s3)nc(-c3cnccn3)n2)c(Cl)c1"
  pIC50: "< 4.52"
- Structure: "CNC(=O)Nc1ncc(-c2cc(-c3c(C)cc(OC)cc3C)nc(-c3cnccn3)n2)s1"
  pIC50: 6.38
- Structure: "CCC(CC)Oc1cc(C)c(-c2cc(-c3cnc(NC(=O)C(C)C)s3)nc(-c3cnccn3)n2)c(C)c1"
  pIC50: "< 4.90"
- Structure: "CCCNc1ncc(-c2cc(-c3cc(OC)ccc3Cl)nc(-c3cnccn3)n2)s1"
  pIC50: "< 4.52"
- Structure: "CCCNc1ncc(-c2cc(-c3c(Cl)cc(OCCC)cc3Cl)nc(-c3cnccn3)n2)s1"
  pIC50: "< 4.52"
